Source listed as patent US20240382597A1.

assay: solubility in water of anti-inflammatory agents, alone and in formulations comprising MSM; type: physicochemical; conditions: in formulations comprising MSM (about 5.4% w/w; range 0.1 wt. % to about 15 wt. %)
Here the recorded solubility in water is given for each entry.

Answered examples (3):
>>> result("COC(=O)c1ccccc1O [Methyl salicylate, methyl salicylate]")
"0.013 mg per ml of water"
>>> result("O=C(O)Cc1ccccc1Nc1c(Cl)cccc1Cl")
"50 mg per ml of water"
>>> result("CC(C)Cc1ccc(C(C)C(=O)O)cc1 (stereo not shown)")
"~150 mg per ml of water"

Query "C[C@@H]1C[C@H]2[C@@H]3CCC4=CC(=O)C=C[C@]4(C)[C@@]3(F)[C@@H](O)C[C@]2(C)[C@@]1(O)C(=O)CO" yields solubility in water of ~250 mg per ml of water
